- TEST TARGET: Trypanothione reductase (Trypanosoma cruzi)
- Sequence (P28593 whole entry): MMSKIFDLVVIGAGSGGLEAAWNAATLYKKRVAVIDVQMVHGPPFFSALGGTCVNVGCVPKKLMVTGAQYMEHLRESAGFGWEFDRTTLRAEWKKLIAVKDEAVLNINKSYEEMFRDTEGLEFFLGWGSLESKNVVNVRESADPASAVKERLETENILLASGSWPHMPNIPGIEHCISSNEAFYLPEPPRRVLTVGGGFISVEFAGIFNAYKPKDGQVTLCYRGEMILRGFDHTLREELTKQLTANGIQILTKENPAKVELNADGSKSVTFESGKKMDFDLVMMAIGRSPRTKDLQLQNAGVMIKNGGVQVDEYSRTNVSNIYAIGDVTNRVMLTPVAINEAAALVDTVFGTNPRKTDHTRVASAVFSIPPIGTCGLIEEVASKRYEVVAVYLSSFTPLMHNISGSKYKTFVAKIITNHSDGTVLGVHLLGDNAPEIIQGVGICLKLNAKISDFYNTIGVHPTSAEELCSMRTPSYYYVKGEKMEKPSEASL
- EXPERIMENT: Time-dependent inhibition of Trypanosoma cruzi trypanothione reductase assessed as dissociation constants for enzyme-inhibitor binding using TS2 as substrate by DTNB-coupled assay
- MEASUREMENT SETUP: read-out: Ki(app)
MEASURE: Ki (µM)
Give the value, in units of µM, as a plain number.

- Cc1cc(C)c(CCCCN(CCCCc2c(C)cc(C)c(O)c2C)Cc2ccccc2)c(C)c1O: 288
- Nc1nc(N)nc(Nc2ccc([As]=O)cc2)n1 (stereo not drawn) [MELARSEN OXIDE]: 18

Consider the additional compound presented here.
Lookup: Query (compound): `O=C1CC[C@]23/C=C/C(=O)NCCCCNCCCNC(=O)/C=C\c4ccc(c2c4)O[C@@H]3C1` ; field requested: Ki
Found: 304
